Values compiled from the NIST ThermoML archive (doi:10.1021/je900550v).

# study_conditions: 327.16 K; 101.33 kPa; Liquid; Pulse-echo method
quantity_name: speed of sound (m/s)

>>> measured_value("CCC(=O)[O-].C[NH2+]CCO [2-hydroxy-N-methylethanaminium propionate]")
1603.9
>>> measured_value("CC(C)C(=O)[O-].C[NH2+]CCO [2-hydroxy-N-methylethanaminium isobutyrate]")
1529.2
>>> measured_value("CCCC(=O)[O-].C[NH2+]CCO [N-methyl-2-hydroxyethylammonium butanoate]")
1523.7
>>> measured_value("C[NH2+]CCO.O=C[O-] [2-hydroxy-N-methylethanaminium formate]")
1759
>>> measured_value("CCCCC(=O)[O-].C[NH2+]CCO [2-hydroxy-N-methylethanaminium pentanoate]")
1459.3
